human HIF-PHD2 (Homo sapiens) pIC50, compiled from various sources.
Note: pIC50 values are expressed as the negative base-10 logarithm of concentration in M.

[Q] Give pIC50 for the following compound: C[C@H]1CC[C@H](n2nc(F)c3nc(-n4cc(C(=O)O)cn4)nc(O)c32)CC1
[A] 7.38

[Q] Give pIC50 for the following compound: O=C(O)c1cnn(-c2nc(O)c3c(cnn3Cc3ccc(-c4ccccc4C(F)(F)F)cc3F)n2)c1
[A] 7.89

[Q] Give pIC50 for the following compound: N#Cc1ccccc1Cn1c2c(c(O)c(C(=O)NCC(=O)O)c1=O)COC2
[A] 8.34

[Q] Give pIC50 for the following compound: O=C(O)c1cnn(-c2nc(O)c3c(cnn3CCC3CCCCC3)n2)c1
[A] 7.15

[Q] Give pIC50 for the following compound: CC(C)CC(CC(C)C)n1ncc2nc(-n3cc(C(=O)O)cn3)nc(O)c21
[A] 7.03

[Q] Give pIC50 for the following compound: O=C(O)c1cnn(-c2nc(O)c3nn(CC4(COc5ccc6c(c5)CCCC6)CC4)cc3n2)c1
[A] 7.59

[Q] Give pIC50 for the following compound: C[C@H](NC(=O)c1c(O)c2c(n(Cc3ccc(C(F)(F)F)cc3)c1=O)COC2)C(=O)O
[A] 7.44

[Q] Give pIC50 for the following compound: Cn1c(=O)c(C(=O)NCC(=O)O)c(O)c2cc(C3CCCC3)nnc21
[A] 8.06

[Q] Give pIC50 for the following compound: CCC(c1ccc(C)c(Cl)c1)n1ncc2nc(-n3cc(C(=O)O)cn3)nc(O)c21 (centres unmarked)
[A] 6.96

[Q] Give pIC50 for the following compound: Cc1c(Br)sc2c(O)c(C(=O)NCC(=O)O)c(=O)n(C)c12
[A] 7.70
